Origin of values: ChEMBL document CHEMBL3885861

- Species: Rattus norvegicus
- experimental_details: Open TG-GATES - Regimen: Daily Repeat
- Type: toxicity, organism-based, Sprague-Dawley
- Design: regimen Daily Repeat, gender Male, age 6 weeks
- run_conditions: in vivo, po, 0 mg/kg, […], tissue Blood, route gavage, dose level Control, time 14 day
readout_name: MCH (pg)
Give your result in pg as a bare value.

Solved cases (3 shown):
molecule=CN1C(=O)OC(C)(C)C1=O readout_name=MCH value_measured=20.8
molecule=CCSCC[C@H](N)C(=O)O readout_name=MCH value_measured=20.3
molecule="CC(C)C(=O)Nc1ccc([N+](=O)[O-])c(C(F)(F)F)c1 [FLUTAMIDE]" readout_name=MCH value_measured=20.8

Then there is this molecule:
Request the reported MCH associated with C[C@]12CCC(=O)C=C1CC[C@@H]1[C@@H]2CC[C@@]2(C)[C@H]1CC[C@]2(C)O 20.7

* * *

- Species: Rattus norvegicus
- experimental_details: Open TG-GATES - Regimen: Daily Repeat
- Format: toxicity, organism-based, Sprague-Dawley
- Design: regimen Daily Repeat, gender Male, age 6 weeks
- run_conditions: in vivo, po, 0 mg/kg, […], tissue Blood, route gavage, dose level Control, time 28 day
Quick reference for MCHC among some compounds

compound="CCN1CCCC1CNC(=O)c1cc(S(N)(=O)=O)ccc1OC (stereo unspecified) [SULPIRIDE]" value_measured=34.3%
compound=CN1C(=O)OC(C)(C)C1=O value_measured=34.8%
compound=O=C(O)c1cccnc1 value_measured=35.2%
compound=CC(=O)Oc1cc(C(C)C)c(OCCN(C)C)cc1C value_measured=35.5%

// query MCHC value for entry CCSCC[C@H](N)C(=O)O 35.1%

Param item = CC(=N)S [THIOACETAMIDE] ; retrieve measured MCHC. 33.9%

* * *

- Species on record: Rattus norvegicus
- experimental_details: Open TG-GATES - Regimen: Single
- Format: toxicity, organism-based, Sprague-Dawley
- Design: regimen Single, gender Male, age 6 weeks
- run_conditions: in vivo, po, 0 mg/kg, 24 h, tissue Blood, route gavage, dose level Control
readout_name: RBC (x10_4/ul)
Respond numerically; units are x10_4/ul and should not be typed.

Some compounds with known RBC results, for comparison:
compound="CC(=N)S [THIOACETAMIDE]" readout_name=RBC measurement_unit=x10_4/ul value_measured=632.8
compound=Oc1ncnc2[nH]ncc12 readout_name=RBC measurement_unit=x10_4/ul value_measured=613.4
compound=CCC(C)(C)C(=O)O[C@H]1C[C@@H](C)C=C2C=C[C@H](C)[C@H](CC[C@@H]3C[C@@H](O)CC(=O)O3)[C@H]21 readout_name=RBC measurement_unit=x10_4/ul value_measured=614

Data request, read-out RBC, for Nc1nc(N)c2nc(-c3ccccc3)c(N)nc2n1 652

// query RBC value for entry O=C(O)c1cccnc1 621.2

So what does the record say about RBC for CCSCC[C@H](N)C(=O)O ? 644.2

* * *

# MCHC per entry
- Species on record: Rattus norvegicus
- experimental_details: Open TG-GATES - Regimen: Daily Repeat
- Type: toxicity, organism-based, Sprague-Dawley
- Parameters: regimen Daily Repeat, gender Male, age 6 weeks
- run_conditions: in vivo, po, 0 mg/kg, […], tissue Blood, route gavage, dose level Control, time 7 day
Hi! Could you send only the number? It should be in %, unit omitted.

# example entries with known answers
molecule="O=C(N[C@H](CO)[C@H](O)c1ccc([N+](=O)[O-])cc1)C(Cl)Cl [CHLORAMPHENICOL]" readout_name=MCHC value_measured=32.6
molecule="C[C@](N)(Cc1ccc(O)c(O)c1)C(=O)O [METHYLDOPA]" readout_name=MCHC value_measured=34.2
molecule="CCSCC[C@H](N)C(=O)O [ETHIONINE]" readout_name=MCHC value_measured=34
molecule="CC(C)C(=O)Nc1ccc([N+](=O)[O-])c(C(F)(F)F)c1 [FLUTAMIDE]" readout_name=MCHC value_measured=33.9
molecule="CCC(C)(C)C(=O)O[C@H]1C[C@@H](C)C=C2C=C[C@H](C)[C@H](CC[C@@H]3C[C@@H](O)CC(=O)O3)[C@H]21 [SIMVASTATIN]" readout_name=MCHC value_measured=33
molecule="Oc1ncnc2[nH]ncc12 [ALLOPURINOL]" readout_name=MCHC value_measured=33.2

What value of MCHC has been reported for the following molecule? CN1C(=O)OC(C)(C)C1=O [TRIMETHADIONE] 33.6

Could you tell me which MCHC is on file for O=C(O)c1cccnc1 [NIACIN] ? 34.3
